Value source: patent US20230029835A1

Each record here notes measured IC50.
Target: T1, Cynomolgus macaques TSLP recombinant protein (Cynomolgus macaques, UniProt Q969D9 29-159 (human entry), limits assumed, biotinylated in the blocking assays (sites not given))
T1 construct: also called cyTSLP; biotinylated Cynomolgus macaques TSLP protein
T1 chain: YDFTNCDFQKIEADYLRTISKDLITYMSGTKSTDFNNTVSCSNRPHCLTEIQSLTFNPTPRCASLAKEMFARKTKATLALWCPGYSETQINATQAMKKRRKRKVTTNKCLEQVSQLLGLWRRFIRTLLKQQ
Experiment: competition ELISA, biotin-cynomolgus TSLP to coated cynomolgus TSLPR-Fc
Give the number; nM is assumed, so skip it.

As a guide, the following entries are already answered.
binder	unitsSymbol	IC50
Ab5 (antibody, V domains shown, Humanized; also called h39G5VHv5/h39G5VKv1) VH: QVQLVQSGAEVKKPGSSVKVSCKASGYTFTDYWMHWVRQAPGQGLEWMGIIDPSDSDTSLNQKFQGRVTLTVDTSTSTAYMELSSLRSEDTAVYYCARSLDGYYDYWGQGTLVTVSS VL: DIQMTQSPSSLSASVGDRVTITCRASENIYSYLAWYQQKPGKAPKLLIYNARTLPEGVPSRFSGSGSGTDFTLTISSLQPEDFATYYCQHHYTTPWTFGQGTKVEIK	nM	0.28
Ab13 (antibody, V domains shown, Humanized; also called h39G5VHv13/h39G5VKv1) VH: EVQLVQSGAEVKKPGESLKISCKASGYTFTDYWMHWVRQMPGKGLEWMGIIDPSDSDTSLNQSFQGHVTISADKSISTAYLQWSSLKASDTAMYYCARSLDGYYDYWGQGTLVTVSS VL: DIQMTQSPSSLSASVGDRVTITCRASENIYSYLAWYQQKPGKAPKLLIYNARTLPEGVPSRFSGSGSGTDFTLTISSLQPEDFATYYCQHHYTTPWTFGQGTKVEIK	nM	0.55

Lab note: next binder to report on.
Query: Bench note: what IC50 did Ab1 (antibody, V domains shown, Humanized; also called h39G5VHv1/h39G5VKv1) VH: QVQLVQSGAEVKKPGSSVKVSCKASGYSFISYWIHWVRQAPGQGLEWMGIIDPSDSDTSLNQKFQGRVTLTVDKSSTTAYMELSSLRSEDTAVYYCARSLDGYYDYWGQGTLVTVSS VL: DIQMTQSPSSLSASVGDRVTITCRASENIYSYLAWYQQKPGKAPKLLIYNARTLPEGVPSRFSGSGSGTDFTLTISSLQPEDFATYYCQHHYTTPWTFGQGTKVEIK show?
Response: 1.78
